System: T1, K48-linked diubiquitin (human, UniProt P0CG48 1-76, isopeptide bond between Lys48 of one ubiquitin and the C-terminal Gly of the other)
T1 construct: Boston Biochem
Assay Details: SPR Biacore, antigen immobilized
Attribute Measured: kon (M⁻¹ s⁻¹)
Just the number in M⁻¹ s⁻¹, nothing appended.

Use the examples below as a reference point.
Fab apu02 (Fab, V domains shown) VH: EVQLVESGGGLVQPGGSLRLSCAASGFNVSYSYMHWVRQAPGKGLEWVASISSYYSYTSYADSVKGRFTISADTSKNTAYLQMNSLRAEDTAVYYCARSYSYYSAIDYWGQGTLVTVSS VL: DIQMTQSPSSLSASVGDRVTITCRASQSVSSAVAWYQQKPGKAPKLLIYSASSLYSGVPSRFSGSRSGTDFTLTISSLQPEDFATYYCQQSSYSSLFTFGQGTKVEIK	546000
Fab apu07 (Fab, V domains shown) VH: EVQLVESGGGLVQPGGSLRLSCAASGFNLSYSYIHWVRQAPGKGLEWVASISSYYGSTSYADSVKGRFTISADTSKNTAYLQMNSLRAEDTAVYYCARESFYYSPAFDYWGQGTLVTVSS VL: DIQMTQSPSSLSASVGDRVTITCRASQSVSSAVAWYQQKPGKAPKLLIYSASSLYSGVPSRFSGSRSGTDFTLTISSLQPEDFATYYCQQSYYYSLFTFGQGTKVEIK	1.05e+06

Looking up Fab apu11 (Fab, V domains shown) VH: EVQLVESGGGLVQPGGSLRLSCAASGFNVSYYYIHWVRQAPGKGLEWVASISSYYGYTSYADSVKGRFTISADTSKNTAYLQMNSLRAEDTAVYYCARENYWWAIDYWGQGTLVTVSS VL: DIQMTQSPSSLSASVGDRVTITCRASQSVSSAVAWYQQKPGKAPKLLIYSASSLYSGVPSRFSGSRSGTDFTLTISSLQPEDFATYYCQQSYYYYPITFGQGTKVEIK , I see its kon listed as 904000
